Numbers sourced from the supplement of paper PMC10307832.

test system: NCI-H441; experiment: relative viability (nuclei count vs DMSO), 5 days (fraction); higher = more cells survive; conditions: first compound 2.53 µM
As shown below, each of these compounds has a reported relative viability value.
Measurement Name: relative viability

[[record]]
compound = "CCCCCCCCCCCC1=C(O)C(=O)C=C(O)C1=O [Embelin] + C[C@@H](Oc1cc(-c2cnn(C3CCNCC3)c2)cnc1N)c1c(Cl)ccc(F)c1Cl [Crizotinib] (partner 1 µM)"
reading = 0.788

[[record]]
compound = "CCCCCCCCCCCC1=C(O)C(=O)C=C(O)C1=O [Embelin] + CC(=O)Nc1cccc(-n2c(=O)n(C3CC3)c(=O)c3c(Nc4ccc(I)cc4F)n(C)c(=O)c(C)c32)c1 [Trametinib] (partner 0.02 µM)"
reading = 0.552

[[record]]
compound = "CCCCCCCCCCCC1=C(O)C(=O)C=C(O)C1=O [Embelin] + CC1(C)CCC(c2ccc(Cl)cc2)=C(CN2CCN(c3ccc(C(=O)NS(=O)(=O)c4ccc(N[C@H](CCN5CCOCC5)CSc5ccccc5)c(S(=O)(=O)C(F)(F)F)c4)cc3)CC2)C1 [Navitoclax] (partner 0.5 µM)"
reading = 0.56

[[record]]
compound = "CCCCCCCCCCCC1=C(O)C(=O)C=C(O)C1=O [Embelin] + Cc1nc(NC(=O)N2CCC[C@H]2C(N)=O)sc1-c1ccnc(C(C)(C)C(F)(F)F)c1 [Alpelisib] (partner 2 µM)"
reading = 0.933

[[record]]
compound = "CCCCCCCCCCCC1=C(O)C(=O)C=C(O)C1=O [Embelin] + O=C(CCCCCCC(=O)Nc1ccccc1)NO [Vorinostat] (partner 1 µM)"
reading = 0.841

